- System tested: PDE6 from bovine retina (Bos taurus, UniProt P11541+P23439)
- Construct: the PDE6 was isolated form bovine retinas
- Sequence (P11541 2-856 limits assumed): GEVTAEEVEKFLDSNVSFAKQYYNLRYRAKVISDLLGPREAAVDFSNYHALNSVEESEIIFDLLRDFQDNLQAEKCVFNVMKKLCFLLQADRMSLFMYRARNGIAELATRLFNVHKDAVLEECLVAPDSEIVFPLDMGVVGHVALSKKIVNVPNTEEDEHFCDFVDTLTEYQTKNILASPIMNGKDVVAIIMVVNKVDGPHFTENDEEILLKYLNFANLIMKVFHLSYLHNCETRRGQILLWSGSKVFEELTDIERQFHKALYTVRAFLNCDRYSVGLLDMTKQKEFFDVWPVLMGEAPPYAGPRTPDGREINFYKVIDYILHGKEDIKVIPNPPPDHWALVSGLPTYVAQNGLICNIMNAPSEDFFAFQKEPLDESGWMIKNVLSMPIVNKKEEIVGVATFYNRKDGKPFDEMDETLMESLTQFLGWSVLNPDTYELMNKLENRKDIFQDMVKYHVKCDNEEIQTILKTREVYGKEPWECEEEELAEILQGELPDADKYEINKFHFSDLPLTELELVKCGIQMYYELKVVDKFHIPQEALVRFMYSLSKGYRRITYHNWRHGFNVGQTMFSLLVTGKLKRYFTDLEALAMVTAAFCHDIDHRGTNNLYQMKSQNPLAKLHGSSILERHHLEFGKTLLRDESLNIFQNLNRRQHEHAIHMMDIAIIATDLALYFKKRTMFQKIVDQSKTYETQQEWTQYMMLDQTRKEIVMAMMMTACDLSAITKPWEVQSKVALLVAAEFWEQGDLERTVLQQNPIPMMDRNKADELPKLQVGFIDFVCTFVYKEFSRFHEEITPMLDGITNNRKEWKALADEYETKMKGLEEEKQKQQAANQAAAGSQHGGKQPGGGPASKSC
- Sequence (P23439 2-850 limits assumed): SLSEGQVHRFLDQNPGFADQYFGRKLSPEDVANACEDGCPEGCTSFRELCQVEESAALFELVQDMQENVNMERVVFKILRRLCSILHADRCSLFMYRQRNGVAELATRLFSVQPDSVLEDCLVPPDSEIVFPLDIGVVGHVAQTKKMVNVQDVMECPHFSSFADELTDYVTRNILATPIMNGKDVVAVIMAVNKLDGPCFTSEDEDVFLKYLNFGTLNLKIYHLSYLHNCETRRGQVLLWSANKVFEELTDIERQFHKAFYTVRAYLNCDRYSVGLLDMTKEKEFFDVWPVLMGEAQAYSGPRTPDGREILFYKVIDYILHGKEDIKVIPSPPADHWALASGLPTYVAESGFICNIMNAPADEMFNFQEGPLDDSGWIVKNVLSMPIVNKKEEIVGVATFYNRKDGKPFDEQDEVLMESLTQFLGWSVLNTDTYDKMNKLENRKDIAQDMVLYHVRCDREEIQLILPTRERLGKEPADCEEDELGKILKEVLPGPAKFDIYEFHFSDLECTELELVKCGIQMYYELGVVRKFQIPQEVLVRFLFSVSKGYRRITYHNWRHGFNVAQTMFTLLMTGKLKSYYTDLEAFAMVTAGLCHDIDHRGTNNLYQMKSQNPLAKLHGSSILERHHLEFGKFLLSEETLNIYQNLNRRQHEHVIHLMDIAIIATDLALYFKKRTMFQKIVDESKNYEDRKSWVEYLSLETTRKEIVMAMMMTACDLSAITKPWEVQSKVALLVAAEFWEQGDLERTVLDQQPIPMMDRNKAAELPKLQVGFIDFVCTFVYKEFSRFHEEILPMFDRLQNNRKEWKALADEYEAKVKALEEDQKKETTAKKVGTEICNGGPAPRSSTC
- Test: PDE6 inhibitory activity test (scintillation proximity assay)
- Experimental setup: PDE6 from bovine retina
pIC50: −log10 of the molar value.
Measured property: pIC50

[[record]]
structure_notation = "CCCOc1ccc(S(=O)(=O)N(CCN2CCCC2)Cc2cccnc2)cc1-c1nc2c(CCC)nn(C)c2c(=O)[nH]1"
measured_property = "pIC50"
assay_value = 6.67

[[record]]
structure_notation = "CCCOc1ccc(S(=O)(=O)N(CC)CCN2CCOCC2)cc1-c1nc2c(CC)nn(C)c2c(=O)[nH]1"
measured_property = "pIC50"
assay_value = 6.63

[[record]]
structure_notation = "CCCOc1ccc(S(=O)(=O)N(CCCO)CCCOC(C)=O)cc1-c1nc2c(CCC)nn(C)c2c(=O)[nH]1"
measured_property = "pIC50"
assay_value = 6.59

[[record]]
structure_notation = "CCCc1nn(C)c2c(=O)[nH]c(-c3cc(S(=O)(=O)N(CCOC(=O)c4cccnc4)CCOC(=O)c4cccnc4)ccc3OCC)nc12"
measured_property = "pIC50"
assay_value = 6.88


###

- Test system: male KM mouse
- Test: Acute oral toxicity test
- Type: in vivo
- Experimental setup: single oral dose of 3 g/kg, 10 or 11 mice per group
# reported Number of death; entries follow
Measured property: Number of death

[[record]]
compound = "CCCOc1ccc(S(=O)(=O)N(CCOC(C)=O)CCN2CCOCC2)cc1-c1nc2c(CCC)nn(C)c2c(=O)[nH]1"
measured_property = "Number of death"
assay_value = 0

[[record]]
compound = "CCCc1nn(C)c2c(=O)[nH]c(-c3cc(S(=O)(=O)N4CCN(C)CC4)ccc3OCC)nc12 [sildenafil, Sildenafil, reference compound]"
measured_property = "Number of death"
assay_value = 6

[[record]]
compound = "CCCOc1ccc(S(=O)(=O)N(CCCO)CCCOC(C)=O)cc1-c1nc2c(CCC)nn(C)c2c(=O)[nH]1"
measured_property = "Number of death"
assay_value = 0

[[record]]
compound = "CCCOc1ccc(S(=O)(=O)N(CC)CCN2CCOCC2)cc1-c1nc2c(CC)nn(C)c2c(=O)[nH]1"
measured_property = "Number of death"
assay_value = 0


###

- Tested on: male KM mouse
- Test: Acute oral toxicity test
- Type: in vivo
- Experimental setup: single oral dose of 3 g/kg, 10 or 11 mice per group
Measured property: mortality rate (%)

[[record]]
compound = "CCCOc1ccc(S(=O)(=O)N(CCCOC(C)=O)CCCOC(C)=O)cc1-c1nc2c(CCC)nn(C)c2c(=O)[nH]1 [Example 93]"
measured_property = "mortality rate"
assay_value = 0

[[record]]
compound = "CCCOc1ccc(S(=O)(=O)N(CC)CCCOC(C)=O)cc1-c1nc2c(CCC)nn(C)c2c(=O)[nH]1 [Example 97]"
measured_property = "mortality rate"
assay_value = 45

[[record]]
compound = "CCCOc1ccc(S(=O)(=O)N(CCOCC)CCN2CCOCC2)cc1-c1nc2c(CCC)nn(C)c2c(=O)[nH]1 [Example 111]"
measured_property = "mortality rate"
assay_value = 0

[[record]]
compound = "CCCOc1ccc(S(=O)(=O)N(CC)CCN2CCOCC2)cc1-c1nc2c(CC)nn(C)c2c(=O)[nH]1 [Example 54]"
measured_property = "mortality rate"
assay_value = 0

[[record]]
compound = "CCCOc1ccc(S(=O)(=O)N(CCCO)CCCOC(C)=O)cc1-c1nc2c(CCC)nn(C)c2c(=O)[nH]1 [Example 92]"
measured_property = "mortality rate"
assay_value = 0

[[record]]
compound = "CCCOc1ccc(S(=O)(=O)N(CCN2CCOCC2)Cc2cccnc2)cc1-c1nc2c(CCC)nn(C)c2c(=O)[nH]1 [Example 62]"
measured_property = "mortality rate"
assay_value = 60

[[record]]
compound = "CCCOc1ccc(S(=O)(=O)N(CCCO)CCCOC)cc1-c1nc2c(CCC)nn(C)c2c(=O)[nH]1 [Example 99]"
measured_property = "mortality rate"
assay_value = 10

[[record]]
compound = "CCCOc1ccc(S(=O)(=O)N(CCCOC)CCCOC(C)=O)cc1-c1nc2c(CCC)nn(C)c2c(=O)[nH]1 [Example 118]"
measured_property = "mortality rate"
assay_value = 0

[[record]]
compound = "CCCOc1ccc(S(=O)(=O)N(CCOC(C)=O)CCN2CCOCC2)cc1-c1nc2c(CCC)nn(C)c2c(=O)[nH]1 [Example 96]"
measured_property = "mortality rate"
assay_value = 0

[[record]]
compound = "CCCOc1ccc(S(=O)(=O)N(CCN2CCCC2)Cc2cccnc2)cc1-c1nc2c(CCC)nn(C)c2c(=O)[nH]1 [Example 89]"
measured_property = "mortality rate"
assay_value = 45

[[record]]
compound = "CCCc1nn(C)c2c(=O)[nH]c(-c3cc(S(=O)(=O)N4CCN(C)CC4)ccc3OCC)nc12 [sildenafil, Sildenafil, reference compound]"
measured_property = "mortality rate"
assay_value = 60


Data provenance: patent US20080318949A1
